# SYSTEM_NAME: p53-MDM2 interaction (GST-MDM2 protein aa 23-117 / biotinylated p53 wt peptide) (Homo sapiens (Human))
# MEASUREMENT_PROTOCOL: MDM2-p53 Inhibition AlphaScreen
# STUDY_CONDITIONS: 20 nM GST-MDM2 (aa 23-117), 20 nM biotinylated p53 wt peptide
ASSAY_METRIC: IC50 (nM)

In [3]: df
Out[3]:
                                   molecule  value_observed
0  CCOC(=O)CNc1ccc(N2CC[C@H]3[C@@H](C2=O)[C@H](c2cccc(Cl)c2F)[C@]2(C(=O)Nc4cc(Cl)ccc42)N3CC2CC2)cc1             192
1  CCOc1cccc(CN2[C@H]3CCNC(=O)[C@H]3[C@H](c3cccc(Cl)c3)[C@]23C(=O)Nc2cc(Cl)ccc23)c1              30
2  O=C(O)c1ccc(N2C[C@H]3[C@@H](C2=O)[C@H](c2cccc(Cl)c2F)[C@]2(C(=O)Nc4cc(Cl)ccc42)N3CC2CC2)cc1 [Compound I-216]               6
3  O=C1NCC[C@H]2[C@@H]1[C@H](c1cccc(Cl)c1F)[C@]1(C(=O)Nc3cc(Cl)c(F)cc31)N2CC1CC1             324
4  CC(=O)Nc1ccc(N2CC[C@H]3[C@@H](C2=O)[C@H](c2cccc(Cl)c2F)[C@]2(C(=O)Nc4cc(Cl)ccc42)N3CC2CC2)cc1              58
5  O=C(O)c1ccc(N2C[C@@H]3[C@H](C2=O)[C@@H](c2cccc(Cl)c2F)[C@@]2(C(=O)Nc4cc(Cl)ccc42)N3CC2CCC2)cc1             271

// data source = patent US10576064B2
